What Kb was measured for each of the following?
- System: Quadruplex DNA
- procedure-details: Binding affinity to telomeric Htg24 G-quadruplex DNA (unknown origin) assessed as equilibrium binding constant at 5 uM at 25 degreeC by […]
- Assay type: nucleic-acid assay
Give bare numbers, in M⁻¹.

Recorded Kb, per entry:
# query-smiles, measure-unit, Kb
data = [
    ("CC1CCN(CCCN2/C(=C/c3cc(/C=C/c4ccc(C#N)cc4)[n+](C)c4ccccc34)Sc3ccccc32)CC1.[I-]", "M⁻¹", 902000),
    ("C[n+]1c(/C=C/c2ccc(C#N)cc2)cc(/C=C2\\Sc3ccccc3N2CCCN2CCOCC2)c2ccccc21.[I-]", "M⁻¹", 505000),
]

Go through the items and report each one's Kb.
1. CSc1ccc(/C=C/c2cc(/C=C3\Sc4ccccc4N3CCCN3CCC(C)CC3)c3ccccc3[n+]2C)cc1.[I-]
2. C[n+]1c(/C=C/c2ccc(N(c3ccccc3)c3ccccc3)cc2)cc(/C=C2\Sc3ccccc3N2CCCN2CCOCC2)c2ccccc21.[I-]
3. CSc1ccc(/C=C/c2cc(/C=C3\Sc4ccccc4N3CCCN3CCOCC3)c3ccccc3[n+]2C)cc1.[I-]
4. CC1CCN(CCCN2/C(=C/c3cc(/C=C/c4ccc(N(c5ccccc5)c5ccccc5)cc4)[n+](C)c4ccccc34)Sc3ccccc32)CC1.[I-]

Response:
1: 689000; 2: 490000; 3: 325000; 4: 722000

---

- System: rRNA
- procedure-details: Binding affinity to rRNA (unknown origin) assessed as equilibrium binding constant at 5 uM at 25 degreeC […]
- Format: nucleic-acid assay
Output Met for Kb not less than 800000 M⁻¹; output Not met otherwise.

Use the examples below as a reference point.
# query-smiles, assigned-label
records = [
    ("CSc1ccc(/C=C/c2cc(/C=C3\\Sc4ccccc4N3CCCN3CCOCC3)c3ccccc3[n+]2C)cc1.[I-]", "Not met"),
    ("C[n+]1c(/C=C/c2ccc(C#N)cc2)cc(/C=C2\\Sc3ccccc3N2CCCN2CCOCC2)c2ccccc21.[I-]", "Not met"),
    ("CC1CCN(CCCN2/C(=C/c3cc(/C=C/c4ccc(N(C)C)cc4)[n+](C)c4ccccc34)Sc3ccccc32)CC1.[I-]", "Met"),
]

Prompt: Does the reported Kb for CN(C)c1ccc(/C=C/c2cc(/C=C3\Sc4ccccc4N3CCCN3CCOCC3)c3ccccc3[n+]2C)cc1.[I-] fall at or above the 800000 M⁻¹ mark?
Response: Not met

---

- Tested on: Quadruplex DNA
- procedure-details: Binding affinity to telomeric Telo21 G-quadruplex DNA (unknown origin) assessed as equilibrium binding constant at 5 uM at 25 degreeC by […]
- Type: nucleic-acid assay
measured-quantity: Kb (M⁻¹)
Give bare numbers, in M⁻¹.

These recorded examples may help you get a feel for the data.
# query-smiles, recorded-value
rows = [
    ("C[n+]1c(/C=C/c2ccc(O)cc2)cc(/C=C2\\Sc3ccccc3N2CCCN2CCOCC2)c2ccccc21.[I-]", 965000),
    ("C[n+]1c(/C=C/c2ccc(C#N)cc2)cc(/C=C2\\Sc3ccccc3N2CCCN2CCOCC2)c2ccccc21.[I-]", 722000),
]

Here is the next item to consider.
Prompt: Assign Kb to the following record: CC1CCN(CCCN2/C(=C/c3cc(/C=C/c4ccc(N(c5ccccc5)c5ccccc5)cc4)[n+](C)c4ccccc34)Sc3ccccc32)CC1.[I-]
Response: 785000
